Recorded metric: melting point (°C)

> print(dat)
                                    compound  reported
 1       CCS(=O)(=O)CCn1c([N+](=O)[O-])cnc1C       128
 2                       N#Cc1ccccc1N1CCCCC1        43
 3                      CC1=CC(=O)CC(C)(C)C1        -8
 4                      c1ccc(CCc2ccccc2)cc1        52
 5     CN1CCN(C2=Nc3cc(Cl)ccc3Nc3ccccc32)CC1       184
 6                                N#CCCCCC#N         2
 7  c1ccc(P(CP(c2ccccc2)c2ccccc2)c2ccccc2)cc1       121
 8                            Clc1ccc(Cl)nc1        61
 9  O=C1OC(Sc2ccccc2)c2ccccc21 (stereo not given)       103
10                       Nc1cccc(C(F)(F)F)c1         6
11   Cc1ccc[n+]([O-])c1 [3-picoline n-oxide]        38
12  O=C(c1ccccc1)c1cc(C(=O)c2ccccc2)cc(C(=O)c2ccccc2)c1       118
13  Cc1cc(=O)oc2cc(O)ccc12 [7-Hydroxy-4-methyl-2H-chromen-2-one]       191
14                       CN(C)C(=O)Nc1ccccc1       132
15            O=C(O)c1cc(C(=O)O)cc(C(=O)O)c1       375
16                 Oc1ccc2ccccc2c1N=Nc1nccs1       139
17     CCOC(=O)/C(=N\Nc1ccccc1)C(=O)C(F)(F)F        81
18  CN1Cc2c(N)cccc2C(c2ccccc2)C1 (stereo not given)       180
19     CCCCOC(=O)c1ccccc1 [N-butyl benzoate]       -22
20                       O=Cc1ccc(B(O)O)cc1F       240
